meta.source: the supplement of paper PMC7125110

Recorded self-cleavage kobs at 2500 uM GlcN6P, one value per entry.
B1: glmS ribozyme (parent)
chain: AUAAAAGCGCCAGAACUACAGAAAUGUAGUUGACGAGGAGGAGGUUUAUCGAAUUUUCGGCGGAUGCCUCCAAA

variants of: B1; assay: self-cleavage kobs at 2500 uM GlcN6P; higher = faster cleavage; RNA array; settings: with glucosamine-6-phosphate
Fewer inactive variants are shown than the library holds.

• A12G C68A C71A = < 1e-05 s⁻¹
• G13C U30C G35C G40U U47C C50A = < 1e-05 s⁻¹
• A48U G51A U57A = < 1e-05 s⁻¹
• A14G G43U G63U C70A = < 1e-05 s⁻¹
• U31G G43U G66U = < 1e-05 s⁻¹
• A6U G29U A36G G44A U55C = < 1e-05 s⁻¹
• A15C A39U U49A C50U A52G A53C = < 1e-05 s⁻¹
• A6C U31C G41C A42G U45G G59C G66U = < 1e-05 s⁻¹
• G7U C10A G29C U57C = < 1e-05 s⁻¹
• C16U C34U U47C G59U C71U = < 1e-05 s⁻¹

Data point: C8A A15C G32A ; self-cleavage kobs at 2500 uM GlcN6P = < 1e-05 s⁻¹

Data point: C11A G51U U55A G62A ; self-cleavage kobs at 2500 uM GlcN6P = < 1e-05 s⁻¹

Data point: G29C G43U G62C ; self-cleavage kobs at 2500 uM GlcN6P = < 1e-05 s⁻¹

Data point: A36C G41C C50U A64U C68A ; self-cleavage kobs at 2500 uM GlcN6P = < 1e-05 s⁻¹

Data point: G38C G44U ; self-cleavage kobs at 2500 uM GlcN6P = < 1e-05 s⁻¹

Data point: G9A U47C ; self-cleavage kobs at 2500 uM GlcN6P = < 1e-05 s⁻¹

Data point: C11G A39U ; self-cleavage kobs at 2500 uM GlcN6P = < 1e-05 s⁻¹

Data point: G7C G62U ; self-cleavage kobs at 2500 uM GlcN6P = < 1e-05 s⁻¹

Data point: A14G G63U ; self-cleavage kobs at 2500 uM GlcN6P = < 1e-05 s⁻¹

Data point: A6G G38C G41U C68U ; self-cleavage kobs at 2500 uM GlcN6P = < 1e-05 s⁻¹

Data point: C10A G37A A53C ; self-cleavage kobs at 2500 uM GlcN6P = < 1e-05 s⁻¹

Data point: G32C A39U C50G A52C U57A A64U ; self-cleavage kobs at 2500 uM GlcN6P = < 1e-05 s⁻¹

Data point: C11G G37A G60U G63C U69C C70U ; self-cleavage kobs at 2500 uM GlcN6P = < 1e-05 s⁻¹

Data point: A6C G9C G32A C50U A53G ; self-cleavage kobs at 2500 uM GlcN6P = < 1e-05 s⁻¹
